As shown below, each of these compounds has a reported log10(EC50) value.
# Target or system: Kappa-type opioid receptor (Homo sapiens, UniProt P41145)
# Sequence (P41145 whole entry): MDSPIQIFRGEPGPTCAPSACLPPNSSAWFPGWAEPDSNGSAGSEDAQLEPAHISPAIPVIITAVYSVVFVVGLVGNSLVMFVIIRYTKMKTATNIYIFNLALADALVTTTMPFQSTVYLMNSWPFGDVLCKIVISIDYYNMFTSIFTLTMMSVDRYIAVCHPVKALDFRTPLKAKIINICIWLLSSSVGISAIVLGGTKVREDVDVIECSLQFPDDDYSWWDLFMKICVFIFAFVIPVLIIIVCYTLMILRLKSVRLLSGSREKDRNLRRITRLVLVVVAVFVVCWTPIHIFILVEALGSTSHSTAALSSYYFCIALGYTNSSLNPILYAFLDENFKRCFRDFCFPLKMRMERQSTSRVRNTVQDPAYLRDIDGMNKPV
# Experiment notes: Effective concentration for activation of human Opioid receptor kappa 1 expressed in chinese hamster ovary cells to enhance [35S]GTP-gamma-S, binding
# Type: functional, cell-based
Heads up, the numbers here are log10 of EC50 in nM units.

Some entries whose results are on file:
Compound	log10(EC50)
C=CCO[C@H]1C[C@@H](C(=O)OC)[C@]2(C)CCC3C(=O)O[C@H](c4ccoc4)C[C@]3(C)[C@H]2C1=O (stereo partly specified)	2.16
CCCC(=O)O[C@H]1C[C@@H](C(=O)OC)[C@]2(C)CC[C@H]3C(=O)O[C@H](c4ccoc4)C[C@]3(C)[C@H]2C1=O	1.00
CCCCO[C@H]1C[C@@H](C(=O)OC)[C@]2(C)CCC3C(=O)O[C@H](c4ccoc4)C[C@]3(C)[C@H]2C1=O (stereo partly specified)	2.02
CNC(=O)O[C@H]1C[C@@H](C(=O)OC)[C@]2(C)CC[C@H]3C(=O)O[C@H](c4ccoc4)C[C@]3(C)[C@H]2C1=O	2.30

Now examine the next entry.
Entry "CCN[C@@H]1C[C@@H](C(=O)OC)[C@]2(C)CC[C@H]3C(=O)O[C@H](c4ccoc4)C[C@]3(C)[C@H]2C1=O" : reported log10(EC50) = ?
1.84

====

# Target or system: UniProtKB P41145
pKi: −log10 of the molar value.
The label depends only on pKi: 1 if it is at least 7, -1 if it is smaller.

Completed entries (count: 3):
Molecule	Label class
COC(=O)[C@@H]1C[C@H](OC(N)=O)C(=O)[C@H]2[C@@]1(C)CC[C@H]1C(=O)O[C@H](c3ccoc3)C[C@]21C	1
CCCC(=O)O[C@H]1C[C@@H](C(=O)OC)[C@]2(C)CC[C@H]3C(=O)O[C@H](c4ccoc4)C[C@]3(C)[C@H]2C1=O	1
CCCCO[C@H]1C[C@@H](C(=O)OC)[C@]2(C)CCC3C(=O)O[C@H](c4ccoc4)C[C@]3(C)[C@H]2C1=O (some centres undefined)	1

Does the molecule "COC(=O)[C@@H]1C[C@H](OC(=O)CNC(C)=O)C(=O)[C@H]2[C@@]1(C)CC[C@H]1C(=O)O[C@H](c3ccoc3)C[C@]21C" have recorded pKi that is 7 or more?
-1

Does the molecule "CCNC(=O)O[C@H]1C[C@@H](C(=O)OC)[C@]2(C)CC[C@H]3C(=O)O[C@H](c4ccoc4)C[C@]3(C)[C@H]2C1=O" have recorded pKi that is 7 or more?
-1

Does the molecule C=CCO[C@H]1C[C@@H](C(=O)OC)[C@]2(C)CCC3C(=O)O[C@H](c4ccoc4)C[C@]3(C)[C@H]2C1=O (some centres undefined) have recorded pKi that is 7 or more?
1

Does the molecule "COC(=O)[C@@H]1C[C@H](OC(=O)CN(C)C)C(=O)[C@H]2[C@@]1(C)CC[C@H]1C(=O)O[C@H](c3ccoc3)C[C@]21C" have recorded pKi that is 7 or more?
-1
